Tested on: MSH2-deficient HEC59 cells
Assay: Cell viability (MTS) assay, MSH2-deficient cells
Assay type: cell-based, human
Conditions: IC50 MSH2-deficient vs MSH2-proficient cells, 24 h
Each entry below carries its reported Fold difference.
Please respond with just the number, no unit label.

Some solved entries appear below for comparison.
1. N.N.[Cl][Pt][Cl] [cisplatin]	1.6
2. COC(=O)[C@H]1[C@H]2C[C@@H]3c4[nH]c5cc(OC)ccc5c4CCN3C[C@H]2C[C@@H](OC(=O)c2cccc(OC)c2)[C@@H]1OC	0.94

Read the next record carefully.
Summary for this compound, "COC(=O)[C@H]1[C@H]2C[C@@H]3c4[nH]c5cc(OC)ccc5c4CCN3C[C@H]2C[C@@H](OC(=O)/C=C/c2cc(OC)c(OC)c(OC)c2)[C@@H]1OC" : Fold difference is 2.6

* * *

Test system: MSH2-proficient HEC59 cells with chromosome 2 transfer (HEC59 chr.2)
Assay: Cell viability (MTS) assay, MSH2-proficient cells
Assay type: cell-based, human
Settings: Homo sapiens; 24 h exposure; read-out: IC50 in MSH2-proficient cells
Parameter: pIC50
Please keep in mind that pIC50 is minus log10 of the molar concentration; only the number is needed.

1. COC(=O)[C@H]1[C@H]2C[C@@H]3c4[nH]c5cc(OC)ccc5c4CCN3C[C@H]2C[C@@H](OC(=O)c2ccc(OC)c(OC)c2)[C@@H]1OC	4.18
2. COC(=O)[C@H]1[C@H]2C[C@@H]3c4[nH]c5cc(OC)ccc5c4CCN3C[C@H]2C[C@@H](OC(=O)/C=C/c2cc(OC)c(OC)c(OC)c2)[C@@H]1OC	4.41
3. COC(=O)[C@H]1[C@H]2C[C@@H]3c4[nH]c5ccccc5c4CCN3C[C@H]2C[C@@H](OC(=O)c2cc(OC)c(OC)c(OC)c2)[C@@H]1OC	4.31
4. COC(=O)[C@H]1[C@H]2C[C@@H]3c4[nH]c5cc(OC)ccc5c4CCN3C[C@H]2C[C@@H](OC(=O)c2cc(OC)c(OC)c(OC)c2)[C@@H]1OC	4.21

Summary for this compound, "COC(=O)[C@H]1[C@H]2C[C@@H]3c4[nH]c5cc(OC)ccc5c4CCN3C[C@H]2C[C@@H](OC(=O)/C=C/c2ccccc2)[C@@H]1OC" : pIC50 is 3.89

Summary for this compound, "COC(=O)[C@H]1[C@H]2C[C@@H]3c4[nH]c5cc(OC)ccc5c4CCN3C[C@H]2C[C@@H](OC(=O)c2ccc3c(c2)OCO3)[C@@H]1OC" : pIC50 is 4.29

* * *

Each entry below carries its reported Fold difference.
Test system: MSH2-deficient HEC59 cells
Assay: Cell viability (MTS) assay, MSH2-deficient cells
Assay type: cell-based, human
Settings: IC50 MSH2-deficient vs MSH2-proficient cells, 24 h
Please respond with just the number, no unit label.

Summary for this compound, "COC(=O)[C@H]1[C@H]2C[C@@H]3c4[nH]c5cc(OC)ccc5c4CCN3C[C@H]2C[C@@H](OC(=O)/C=C/c2ccccc2)[C@@H]1OC" : Fold difference is 1.2

Summary for this compound, "COC(=O)[C@H]1[C@H]2C[C@@H]3c4[nH]c5cc(OC)ccc5c4CCN3C[C@H]2C[C@@H](OC(=O)c2ccc(OC)cc2)[C@@H]1OC" : Fold difference is 1.01

Summary for this compound, "COC(=O)[C@H]1[C@H]2C[C@@H]3c4[nH]c5ccccc5c4CCN3C[C@H]2C[C@@H](OC(=O)c2cc(OC)c(OC)c(OC)c2)[C@@H]1OC" : Fold difference is 1.2

Summary for this compound, "COC(=O)[C@H]1[C@H]2C[C@@H]3c4[nH]c5cc(OC)ccc5c4CCN3C[C@H]2C[C@@H](OC(=O)c2ccccc2)[C@@H]1OC" : Fold difference is 0.83

Summary for this compound, "COC(=O)[C@H]1[C@H]2C[C@@H]3c4[nH]c5cc(OC)ccc5c4CCN3C[C@H]2C[C@@H](OC(=O)c2cc(OC)cc(OC)c2)[C@@H]1OC" : Fold difference is 0.95

* * *

Test system: MSH2-deficient HEC59 cells
Experiment: Cell viability (MTS) assay, MSH2-deficient cells
Format: cell-based, human
Details: 24 h exposure, MTS; read-out: IC50 MSH2-deficient
Parameter: IC50 (µM)
Could you give me the number in µM? Just the number is fine.

Note to self: IC50 of N.N.[Cl][Pt][Cl] [cisplatin] with MSH2-deficient HEC59 cells was 75

* * *

Test system: MSH2-proficient HEC59 cells with chromosome 2 transfer (HEC59 chr.2)
Experiment: Cell viability (MTS) assay, MSH2-proficient cells
Format: cell-based, human
Conditions: Homo sapiens; 24 h exposure, MTS; read-out: IC50 MSH2-proficient
Description: Cells proficient and deficient in MSH2 were exposed to increasing concentrations of the drugs and cell survival determined in an MTS assay. This assay is based on the mitochondrial activity of living cells that reduces the tetrazolium product (MTS) into a formazan product that can be spectrophotometrically analyzed at OD490. Cell Viability assays. […] A plate reader was used to record the absorbance at 490 nm. […]
Parameter: IC50 (µM)
Could you give me the number in µM? Just the number is fine.

1) COC(=O)[C@H]1[C@H]2C[C@@H]3c4[nH]c5cc(OC)ccc5c4CCN3C[C@H]2C[C@@H](OC(=O)c2ccc3c(c2)OCO3)[C@@H]1OC	51
2) COC(=O)[C@H]1[C@H]2C[C@@H]3c4[nH]c5cc(OC)ccc5c4CCN3C[C@H]2C[C@@H](OC(=O)/C=C/c2cc(OC)c(OC)c(OC)c2)[C@@H]1OC	39

Read the next record carefully.
Summary for this compound, "COC(=O)[C@H]1[C@H]2C[C@@H]3c4[nH]c5cc(OC)ccc5c4CCN3C[C@H]2C[C@@H](OC(=O)c2ccccc2)[C@@H]1OC" : IC50 is 132

Where do the numbers come from? From patent US8486957B2.
